molecular target: human monocyte chemo-attractant protein-1 (MCP-1) (human, UniProt P13500 24-99); test: cell-based or functional assay
Sequence (P13500 24-99): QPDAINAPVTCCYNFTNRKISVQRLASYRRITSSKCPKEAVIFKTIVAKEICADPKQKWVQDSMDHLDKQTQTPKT
REPORTED_ENDPOINT: IC50 Ca++ Flux (µg/mL)
Give just the number in µg/mL; leave the unit off.

Use these answered entries as a reference point.
binder="anti-MCP-1 mAb 3.10.1 (antibody, V domains shown) VH: QVQLVQSGAEVKKPGASVKVSCKVSGYTLTELSMHWVRQAPGKGLEWMGGFDPEDGETIYAQKFQGRVMMTEDTSTDTAFMDLSSLRSEDTAVYYCATDDMLTPHYLYFGMDVWGQGTTVTVSS VL: DIQMTQSPSSLSASVGDRVTITCRASQGIRNDLGWYQQKPGKAPKRLIYATSSLQSGVPSRFSGSGSGTEFTLTISSLQPEDFATYYCLQHNTYPFTFGPGTKVDIKR" numeric_result=0.3
binder="anti-MCP-1 mAb 1.8.1 (antibody, V domains shown) VH: QVQLVQSGAEVKKPGASVKVSCKVSGHIFTELSIHWVRQAPGKGLEWMGGFDPEDGETIYAQKFQGRVTMTEDTSTDTVYMELSSLRSEDTAVYYCATNDFWSGYFDYWGQGTLVTVSS VL: DIVMTQSPGSLAVSLGERATINCKSSQSILFRSNNKNYLTWYQQKPGQPPKLLIYWASIRESGVPDRFSGSGSGSNFTLTITSLQAEDVAIYYCQQYYSSPWTFGQGTKVEIKR" numeric_result=0.26
binder="anti-MCP-1 mAb 1.4.1 (antibody, V domains shown) VH: QSGPGLVKPSQTLSLTCAISGDSVSSNSAAWNWIRQSPSRGLEWLGRTYYRSKWYSDHAVSVRSRITIYPDTSKNQFSLQLNSVTPEDTAVYYCARDRISGTYVGMDVWGQGTTVTVSS VL: DIGMTQTPLSLSVTPGQPASISCKSSQSLLYSDGKTYLYWYLQKPGQPPQHLIYEVSNRFSGVPDRFSGSGSGTDFTLKISRVEADDVGVYYCMQTIHLPLTFGGGTKVEIQR" numeric_result=0.11

Field: next binder
Q: Need IC50 Ca++ Flux, item anti-MCP-1 mAb 1.6.1 (antibody, V domains shown) VH: QVQLVQSGAEVKKPGASVKVSCKVSGYTLTELSMHWVRQAPGKGLEWMGGFDPEDGETIYAQKFQGRVTMTEDTSTDTAYMELSSLRSEDTAVYYCATWYSGIYLAFDIWGQGTMVTVSS VL: EIVLTQSPDFQSVTPKEKVTITCRASQSIGSSLHWYQQKPDQSPKLLIKYASQSFSGVPSRFSGSGSGTDFTLTINSLEAEDAATYYCHQSSSLPHTFGGGTKVEIKR
Ans: 1
